# System: SNB-19
# Protocol Notes: NCI tumour cell line growth inhibition, 48 h
Activity calls are given as the source filed them. No stated cut-off is given here; in the data, active = GI50 up to about 1.1 µM and inactive = higher. Where a SMILES comes first, the peptide text is derived from it. [ ]: non-standard residue; d: D form. The star is where a group is joined. Cbz = O=C(OCc1ccccc1)*; Aib = CC(C)(N)C(=O)O; OBn = c1ccc(CO*)cc1
Choose one outcome from this list and give only that: yes (1) for active, no (0) for inactive

Use these answered entries as a reference point.
{"columns": ["Compound", "Test System", "Class Assignment"],
 "data": [
  ["CC(C)(C)[Si](C)(C)OCC1CCC(n2cnc3c(NC(=O)c4ccccc4)ncnc32)O1 (stereo not given)", "SNB-19", "no (0)"],
  ["Cc1ccc2nc(C(=O)O)c(=O)[nH]c2c1", "SNB-19", "no (0)"],
  ["CN(C)CCNC1=C(Cl)C(=O)c2c(O)ccc(O)c2C1=O", "SNB-19", "no (0)"],
  ["c1ccc(-c2nnn3c2NC2=C(CCCC2)C3c2ccccc2)cc1 (stereo not given)", "SNB-19", "no (0)"],
  ["CCCCCCCCCCCCCCCCOCC(CCl)OP(=O)(O)OP(=O)(O)OCC1OC(n2ccc(N)nc2=O)C(O)C1O (stereo not given)", "SNB-19", "no (0)"],
  ["O=S(=O)(O)c1c(/N=N/c2c(O)ccc3ccccc23)ccc2ccccc12", "SNB-19", "no (0)"],
  ["CCCCCCNC(=O)CCN(C(=O)O)S(=O)(=O)c1ccc(NC(=O)c2ccccc2)cc1", "SNB-19", "no (0)"],
  ["CC(=O)NC1C(OCc2ccccc2)OC(CO)C(O)C1OCC(=O)N1CCCC1C(=O)N[C@@H](CCC(=O)NCCNCCNc1c2ccccc2nc2cccc([N+](=O)[O-])c12)C(N)=O (stereo not given in full)", "SNB-19", "no (0)"],
  ["C/C(=N\\NS(=O)(=O)c1ccc(C)cc1)C(CN1CCOCC1)C(c1ccccc1)c1c(O)c2ccccc2oc1=O (stereo not given)", "SNB-19", "no (0)"],
  ["Cc1c(-c2ccccc2)c(C#N)c2nnn(-c3ccc(Cl)cc3)c(=O)n12", "SNB-19", "no (0)"]
]}

Input: Look up the recorded call for COc1ccc(CNC(C)C(=O)O)cc1 (stereo not given) in this test.
Output: no (0)

Input: Look up the recorded call for `CC(=O)Nc1ccc(S(=O)(=O)N/N=C/CN2C(=O)c3ccccc3C2=O)cc1` in this test.
Output: no (0)

Input: Look up the recorded call for CC(NC(=O)C(C)(C)NC(=O)C(CC(=O)OCc1ccccc1)NC(=O)OCc1ccccc1)C(N)=O (stereo not given) (Cbz-Asp(OBn)-[Aib]-Ala-NH2; configuration not given here) in this test.
Output: no (0)

Input: Look up the recorded call for `CCSc1n/c(=C\c2ccco2)c2nnnn12` in this test.
Output: no (0)

Input: Look up the recorded call for `Cc1c(S(=O)(=O)N/C(=N\O)Nc2ccc(Cl)c(Cl)c2)sc2ccc(Cl)cc12` in this test.
Output: no (0)

Input: Look up the recorded call for `COC(=O)c1c/c(=N\NC(=O)CC(=O)Nc2ccc(C)cc2)c2ccccc2o1` in this test.
Output: no (0)

Input: Look up the recorded call for `Oc1cc(-c2cccc3ccccc23)nc2ncccc12` in this test.
Output: yes (1)
